MEASUREMENT TARGET: human recombinant ETB receptors (Homo sapiens, UniProt P24530)
Construct: expressed in transfected cells; host or cells: CHO cells (microsomal membranes)
Sequence (P24530 27-442): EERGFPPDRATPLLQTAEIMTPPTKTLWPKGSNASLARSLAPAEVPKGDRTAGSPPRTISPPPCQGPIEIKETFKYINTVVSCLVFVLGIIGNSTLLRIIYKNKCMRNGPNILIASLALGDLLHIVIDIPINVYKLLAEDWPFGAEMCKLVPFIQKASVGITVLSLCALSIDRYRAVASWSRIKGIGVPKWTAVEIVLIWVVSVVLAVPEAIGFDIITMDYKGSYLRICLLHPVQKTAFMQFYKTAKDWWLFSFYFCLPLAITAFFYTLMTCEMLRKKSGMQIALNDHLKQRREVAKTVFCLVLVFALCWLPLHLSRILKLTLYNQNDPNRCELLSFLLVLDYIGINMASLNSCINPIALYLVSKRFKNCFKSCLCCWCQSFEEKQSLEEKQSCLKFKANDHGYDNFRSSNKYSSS
MEASUREMENT DESCRIPTION: Inhibition of [125I]ET-1 binding to membranes of CHO cells expressing human recombinant ETB receptors
ASSAY ENDPOINT: IC50 (nM)

* COCCNS(=O)(=O)Nc1ncnc(OCCOc2ncc(Br)cn2)c1-c1ccc(Br)cc1 | 222
* COCCNS(=O)(=O)Nc1ncnc(OCCOc2ncc(Br)cn2)c1Oc1cc(OC)ccc1Cl | 174
* COCCNS(=O)(=O)Nc1ncnc(OCCOc2ncc(OC)cn2)c1-c1ccc(Br)cc1 | 560
* COCCNS(=O)(=O)Nc1ncnc(OCCOc2ncc(SC)cn2)c1-c1ccc(Br)cc1 | 120

---

MEASUREMENT TARGET: human recombinant ETA receptors (Homo sapiens, UniProt P25101)
Sequence (P25101 21-427): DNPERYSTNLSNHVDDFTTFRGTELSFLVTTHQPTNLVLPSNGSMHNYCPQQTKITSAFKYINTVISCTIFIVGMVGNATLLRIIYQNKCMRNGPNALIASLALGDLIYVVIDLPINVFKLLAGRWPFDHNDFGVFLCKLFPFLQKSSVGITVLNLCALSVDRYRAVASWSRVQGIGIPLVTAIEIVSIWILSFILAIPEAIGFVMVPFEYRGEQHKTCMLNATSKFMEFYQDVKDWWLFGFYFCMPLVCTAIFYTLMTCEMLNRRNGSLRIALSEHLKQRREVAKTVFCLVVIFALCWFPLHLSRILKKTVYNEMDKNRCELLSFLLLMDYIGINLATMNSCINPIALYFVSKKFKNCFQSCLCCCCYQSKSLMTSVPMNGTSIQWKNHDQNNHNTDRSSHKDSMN
MEASUREMENT DESCRIPTION: Inhibition of [125I]ET-1 binding to membranes of CHO cells expressing human recombinant ETA receptors
Method: 1) Inhibition of Endothelin Binding to Membranes from CHO Cells Carrying Human ET Receptors: For competition binding studies, membranes of CHO cells expressing human recombinant ETA or ETB receptors were used. Microsomal membranes from recombinant CHO cells were prepared and the binding assay made as previously described (Breu V., et al, FEBS Lett 1993; 334:210). […]
pIC50: −log10 of the molar value.
# maps each entry to its pIC50
ASSAY ENDPOINT: pIC50

* COCCNS(=O)(=O)Nc1ncnc(OCCOc2ncc(Br)cn2)c1Oc1cc(OC)ccc1Cl | 9.55
* COCCNS(=O)(=O)Nc1ncnc(OCCOc2ncc(OC)cn2)c1-c1ccc(Br)cc1 | 8.90
* COCCNS(=O)(=O)Nc1ncnc(OCCOc2ncc(Br)cn2)c1-c1ccc(Br)cc1 | 9.66
* COCCNS(=O)(=O)Nc1ncnc(OCCOc2ncc(SC)cn2)c1-c1ccc(Br)cc1 | 9.70

Source of measurements: patent US7452896B2
